Hey, just so you know, these numbers are from patent US20260184714A1.

Test Name: In vivo pharmacokinetics (plasma concentration by LC-MS/MS, non-compartmental analysis)
Condition Parameters: plasma; mouse, Oral, 10 mg/kG
Property Measured: Tmax (min)
Numbers only, in min.

Give me measured Tmax, please, for this molecule: CC(C)C[C@@H]1C(=O)N2C(CN(CC3CCNCC3)C(=O)[C@@H]2CC(C)C)N1C(=O)c1ccco1 (stereo partly shown)
30

###

Test Name: In vivo pharmacokinetics (plasma concentration by LC-MS/MS, non-compartmental analysis)
Condition Parameters: plasma; mouse, IP, 10 mg/kG
Property Measured: Tmax

Give a short answer stating reported Tmax for CC(C)C[C@@H]1C(=O)N2C(CN(CC3CCNCC3)C(=O)[C@@H]2CC(C)C)N1C(=O)c1ccco1 (stereo partly shown) [Compound I-1] .
15 min

###

Test Name: In vivo pharmacokinetics (plasma concentration by LC-MS/MS, non-compartmental analysis)
Condition Parameters: plasma; mouse, IP, 10 mg/kG; read-out: Co/Cmax
Property Measured: Cmax (ng/mL)
Numbers only, in ng/mL.

Report measured Cmax; entry is CC(C)C[C@@H]1C(=O)N2C(CN(CC3CCNCC3)C(=O)[C@@H]2CC(C)C)N1C(=O)c1ccco1 (stereo partly shown)
689

###

Test Name: In vivo pharmacokinetics (plasma concentration by LC-MS/MS, non-compartmental analysis)
Condition Parameters: plasma; mouse, IV, 2 mg/kG; read-out: Clast (24 h)
Property Measured: concentration at 24 h (ng/mL)
Give bare numbers, in ng/mL.

Return the recorded concentration at 24 h value; entry: CC(C)C[C@@H]1C(=O)N2C(CN(CC3CCNCC3)C(=O)[C@@H]2CC(C)C)N1C(=O)c1ccco1 (stereo partly shown)
1.15

###

Test Name: In vivo pharmacokinetics (plasma concentration by LC-MS/MS, non-compartmental analysis)
Condition Parameters: plasma; mouse, IP, 10 mg/kG
Property Measured: AUC

For the molecule CC(C)C[C@@H]1C(=O)N2C(CN(CC3CCNCC3)C(=O)[C@@H]2CC(C)C)N1C(=O)c1ccco1 (stereo partly shown) , report AUC.
2670 ng·h/mL

###

Test Name: In vivo pharmacokinetics (plasma concentration by LC-MS/MS, non-compartmental analysis)
Condition Parameters: plasma; mouse, IV, 2 mg/kG; read-out: Vss
Property Measured: Vd (L/kg)
Answers are plain numbers, in L/kg.

Name the recorded Vd of the item CC(C)C[C@@H]1C(=O)N2C(CN(CC3CCNCC3)C(=O)[C@@H]2CC(C)C)N1C(=O)c1ccco1 (stereo partly shown) [Compound I-1] in your answer.
8.29

###

Test Name: In vivo pharmacokinetics (plasma concentration by LC-MS/MS, non-compartmental analysis)
Condition Parameters: plasma; mouse, IV, 2 mg/kG; read-out: CLp
Property Measured: clearance
Value and unit, in that order.

Given the compound CC(C)C[C@@H]1C(=O)N2C(CN(CC3CCNCC3)C(=O)[C@@H]2CC(C)C)N1C(=O)c1ccco1 (stereo partly shown) , write its reported clearance.
56.6 mL/min/kg

###

Test Name: In vivo pharmacokinetics (plasma concentration by LC-MS/MS, non-compartmental analysis)
Condition Parameters: plasma; mouse, IV, 2 mg/kG
Property Measured: AUC
Hi, when you answer, please include the unit after the number. Thanks!

Fill in AUC for record CC(C)C[C@@H]1C(=O)N2C(CN(CC3CCNCC3)C(=O)[C@@H]2CC(C)C)N1C(=O)c1ccco1 (stereo partly shown)
595 ng·h/mL

###

Test Name: In vivo pharmacokinetics (plasma concentration by LC-MS/MS, non-compartmental analysis)
Condition Parameters: plasma; mouse, IP, 10 mg/kG; read-out: Clast (24 h)
Property Measured: concentration at 24 h

Please give measured concentration at 24 h of the following entry: CC(C)C[C@@H]1C(=O)N2C(CN(CC3CCNCC3)C(=O)[C@@H]2CC(C)C)N1C(=O)c1ccco1 (stereo partly shown)
0.0129 µg/mL
